- assay explanation: Selectivity index, ratio of CC50 for cytotoxicity against African green monkey Vero E6 cells to EC50 for antiviral activity against VSV-G pseudotyped EBOV-GP Mayinga infected in African green monkey Vero E6 cells
- Type: toxicity, cell-based
- experimental conditions: read-out: Ratio CC50/EC50
recorded endpoint: selectivity ratio

## Input // query selectivity ratio value for entry `O=C(CNCCC1CCN(Cc2ccccc2)CC1)Nc1ccccc1Nc1cc(Cl)ccc1[N+](=O)[O-]`
## Output 4.1

====

- Test system: Vesicular stomatitis virus
- assay explanation: Antiviral activity against VSV-G pseudotyped virus infected in African green monkey Vero E6 cells assessed as inhibition of viral infection at 10 uM preincubated with cells for 1 hr followed by viral infection and measured after 24 hrs by luciferase based luminometric analysis
- Type: functional, organism-based
- experimental conditions: time 25.0 hrs
Activity calls are given as the source filed them. No cut-off for these calls is given here.
recorded endpoint: Activity

Sample answers from the record:
O=C(CCN1CCCC1)Nc1ccccc1Nc1cc(Cl)ccc1[N+](=O)[O-] | inactive
O=C(CNCCC1CCN(Cc2ccccc2)CC1)Nc1ccccc1Sc1cc(Cl)ccc1[N+](=O)[O-] | inactive
CCN(CC)CCC(=O)Nc1ccccc1Sc1cc(Cl)ccc1[N+](=O)[O-] | inactive
CCN(CC)CCC(=O)Nc1ccccc1Nc1cc(Cl)ccc1[N+](=O)[O-] | inactive
O=C(CNCCC1CCN(Cc2ccccc2)CC1)Nc1ccccc1Nc1cc(Cl)ccc1[N+](=O)[O-] | inactive

Alright, here's another molecule for you.
## Input Consider the molecule shown here: `O=C(CCN1CCCC1)Nc1ccccc1Sc1cc(Cl)ccc1[N+](=O)[O-]` What is its recorded Activity?
## Output inactive
